measuredTarget: T1, Biotinylated human soluble TWEAK (human, UniProt O43508 99-249, limits assumed, biotinylated (sites not given))
T1 construct: also called Human TWEAK
T1 sequence (looked up): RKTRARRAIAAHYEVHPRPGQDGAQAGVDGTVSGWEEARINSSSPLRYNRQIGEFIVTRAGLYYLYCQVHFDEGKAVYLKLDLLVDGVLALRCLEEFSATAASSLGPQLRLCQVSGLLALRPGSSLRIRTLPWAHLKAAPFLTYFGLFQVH
methodNotes: Biacore SPR, biotinylated human soluble TWEAK on streptavidin sensor, antibody 100 nM as analyte, 25° C.
For each of the binders below, state its t/2 diss. [min] 25° C..
Give bare numbers, in min.

For every item below, please supply its t/2 diss. [min] 25° C..
1. Antibody 23 (antibody, V domains shown) VH: QVQLQESGPGLVKPSETLSLTCTVSGYSIRSGYWWSWIRQPPGKGLEWIGQIYNKGNTDNNPALKSRVTISVDTSKNQFSLKLSSVTAADTAVYYCARVFWDDAYFDVWGQGTMVTVSS VL: EIVLTQSPGTLSLSPGERATLSCKASQSVSIGPIHLMHWYQQKPGQAPRLLIYGASNPESGIPDRFSGSGSGTDFTLTISRLEPEDFAVYYCQQGKESPRTFGQGTKLEIK
2. Antibody 21 (antibody, V domains shown) VH: QVQLQESGPGLVKPSETLSLTCAVSGYSIRSGYWWSWIRQPPGKGLEWIGQIYNKGNTDNNPALKSRVTISVDTSKNQFSLKLSSVTAADTAVYYCARVFWDDAYFDVWGQGTMVTVSS VL: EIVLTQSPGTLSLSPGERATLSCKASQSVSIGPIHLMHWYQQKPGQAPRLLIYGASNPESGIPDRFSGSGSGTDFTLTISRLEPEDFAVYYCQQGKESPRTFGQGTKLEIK
3. Antibody 25 (antibody, V domains shown) VH: QVQLQESGPGLVKPSETLSLTCAVSGYSIRSGYWWSWIRQQPGKGLEWIGQIYNKGNTDNNPALKSQVTISVDTSKNQFSLKLSSVTAADTAVYYCARVFWDDAYFDVWGQGTMVTVSS VL: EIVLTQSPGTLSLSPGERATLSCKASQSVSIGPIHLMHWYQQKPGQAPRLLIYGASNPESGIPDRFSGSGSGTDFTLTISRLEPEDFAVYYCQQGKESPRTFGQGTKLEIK
4. Antibody 18 (antibody, V domains shown) VH: QVQLQESGPGLVKPSETLSLTCTVSGYSIRSGYWWSWIRQPPGKGLEWIGQIYNKGNTDNSPSLKSRVTISVDTSKNQFSLKLSSVTAADTAVYYCARVFWDDAYFDVWGQGTMVTVSS VL: EIVLTQSPATLSLSPGERATLSCKASQSVSIGPIHLMHWYQQKPGQAPRLLIYGASNPESGIPARFSGSGSGTDFTLTISSLEPEDFAVYYCQQGKESPRTFGQGTKLEIK
5. Antibody 20 (antibody, V domains shown) VH: QVQLQESGPGLVKPSETLSLTCAVSGYSIRSGYWWSWIRQQPGKGLEWIGQIYNKGNTDNSPSLKSQVTISVDTSKNQFSLKLSSVTAADTAVYYCARVFWDDAYFDVWGQGTMVTVSS VL: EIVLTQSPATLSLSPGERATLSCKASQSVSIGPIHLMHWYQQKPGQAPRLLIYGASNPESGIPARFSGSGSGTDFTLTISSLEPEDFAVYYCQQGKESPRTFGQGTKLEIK
6. Antibody 19 (antibody, V domains shown) VH: QVQLQESGPGLVKPSETLSLTCAVSGYSIRSGYWWSWIRQQPGKGLEWIGQIYNKGNTDNNPALKSQVTISVDTSKNQFSLKLSSVTAADTAVYYCARVFWDDAYFDVWGQGTMVTVSS VL: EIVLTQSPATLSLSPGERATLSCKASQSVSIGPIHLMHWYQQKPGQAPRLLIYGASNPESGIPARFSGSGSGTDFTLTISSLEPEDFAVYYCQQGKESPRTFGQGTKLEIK
7. Antibody 22 (antibody, V domains shown) VH: QVQLQESGPGLVKPSETLSLTCAVSGYSIRSGYWWSWIRQPPGKGLEWIGQIYNKGNTDNSPSLKSRVTISVDTSKNQFSLKLSSVTAADTAVYYCARVFWDDAYFDVWGQGTMVTVSS VL: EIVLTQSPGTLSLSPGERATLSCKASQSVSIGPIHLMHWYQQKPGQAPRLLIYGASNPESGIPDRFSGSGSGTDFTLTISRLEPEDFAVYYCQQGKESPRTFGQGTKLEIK

Key:
17
17
17
16
15
17
14

For every item below, please supply its t/2 diss. [min] 25° C..
1. Antibody 16 (antibody, V domains shown) VH: QVQLQESGPGLVKPSETLSLTCAVSGYSIRSGYWWSWIRQPPGKGLEWIGQIYNKGNTDNSPSLKSRVTISVDTSKNQFSLKLSSVTAADTAVYYCARVFWDDAYFDVWGQGTMVTVSS VL: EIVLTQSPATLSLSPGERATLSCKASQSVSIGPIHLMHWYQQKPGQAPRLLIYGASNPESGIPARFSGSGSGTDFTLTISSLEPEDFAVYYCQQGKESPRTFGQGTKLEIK
2. Antibody 26 (antibody, V domains shown) VH: QVQLQESGPGLVKPSETLSLTCAVSGYSIRSGYWWSWIRQQPGKGLEWIGQIYNKGNTDNSPSLKSQVTISVDTSKNQFSLKLSSVTAADTAVYYCARVFWDDAYFDVWGQGTMVTVSS VL: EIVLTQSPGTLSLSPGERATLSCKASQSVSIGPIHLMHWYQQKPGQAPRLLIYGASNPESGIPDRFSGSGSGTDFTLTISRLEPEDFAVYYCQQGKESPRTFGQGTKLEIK

Key:
15
16

Provenance of the data: patent US20100255008A1
